Measured values drawn from PubChem BioAssay (NCI) for this set.

system: SN12C renal; experiment: NCI tumour cell line growth inhibition, 48 h
Quick list: TGI per entry.
// units = µM; emit number, no label

API: value(readout= TGI, system= SN12C renal, query= CC(=O)OC1COC(S[As](C)C)C(OC(C)=O)C1OC(C)=O (stereo not given) )
2.74

Field: TGI (SN12C renal). Entry: CC(=O)C1=C(N=[N+]=[N-])c2cccc3cccc(c23)C1=O
39.7

What value of TGI on SN12C renal does Cc1c(C(=O)/C=C/c2ccc(Cl)cc2)[n+](=O)c2ccccc2n1[O-] have?
23.3

Request: TGI, test system SN12C renal, entry O=C(CN1CCN(C(=O)OCc2ccccc2)CCN(CC(=O)N2CCCCC2)CCN(C(=O)OCc2ccccc2)CC1)N1CCCCC1
26.8

###

test system: CAKI-1 renal; assay: NCI tumour cell line growth inhibition, 48 h
Listed here: items and their measured GI50.

Answered examples (2):
Need GI50 of O=C1c2ccccc2C(=O)N1c1ccc(S(=O)(=O)Nc2ncccn2)cc1 , thanks.
> 100 µM

Please give the measured GI50 for this compound: CCN(CC)CCOc1ccc(/C=C2\CC3C4CCC5=CC(=O)CC[C@]5(C)C4CC[C@]3(C)C2=O)cc1OC (some centres undefined)
2.66 µM

Others:
Please give the measured GI50 for this compound: COC(CCP(=O)(c1ccccc1)c1ccccc1)(C(=O)c1ccccc1)c1ccccc1 (centres undefined)
2.95 µM

Tell me the measured GI50 of O=C1/C(=C/c2ccccc2Cl)N=C(c2ccccc2)N1Cc1ccco1 , please.
94.3 µM

###

test system: SF-539 CNS; assay: NCI tumour cell line growth inhibition, 48 h
The following compounds are shown together with reported TGI values.

Use these answered entries as a reference point.
What does the record list as TGI for CC(NS(C)(=O)=O)c1ccccc1 (stereo unspecified) ?
> 100 µM

Given the entry Cc1ccc2c(c1)NC(=O)CCSSCCC(=O)N2 , report its measured TGI.
> 100 µM

Entry under review: CCOc1ccc2c(c1)/C(=C(\C(Cl)=C(Cl)Cl)[N+](=O)[O-])N2 . Reported TGI?
> 100 µM

Which TGI value belongs to Cc1csc2nc(-c3ccc([N+](=O)[O-])cc3)c(/C=N/N=C(N)N)n12 ?
3.08 µM

Can you look up the measured TGI of CC(=O)Nc1ccc(CNc2cc(=O)[nH]c(=O)[nH]2)cc1 for me?
> 100 µM

Further cases:
Given the entry C=C=C(C)[Si](C)(C)C , report its measured TGI.
> 100 µM

Entry O=C1c2ccccc2-c2nc(-c3cccnc3)cc3c2c1nc1ccccc13 : reported TGI = ?
> 100 µM

Query: TGI; subject: Cc1nc2c(o1)C(=O)c1ccccc1/C2=N/c1ccccn1
33.2 µM

Bench note: what TGI did [Cu+2].[O-]c1ccc2ccccc2c1N=Nc1ccccc1.[O-]c1ccc2ccccc2c1N=Nc1ccccc1 show?
> 100 µM

TGI lookup needed for COc1ccc2c3c1OC1C(=O)C=CC4(O)C(C2)NCC[C@@]314 (stereo partly specified) , thanks.
4.02 µM

Name the recorded TGI for O=S1(=O)CCN(Cc2ccccn2)CC1 .
> 100 µM

###

test system: A498 renal; assay: NCI tumour cell line growth inhibition, 48 h
readout.type: TGI

// worked examples, TGI included
Query: TGI; subject: CC1(c2ccc(Cl)cc2)CC(c2ccc(Cl)cc2)=C(C#N)C(=C(C#N)C#N)N1 (stereo unspecified)
40 µM

For the compound CC(=O)OC1CC2CCC1(C)C2(C)C (stereo unspecified) , what TGI is on record?
> 100 µM

New cases:
Find the recorded TGI belonging to COc1ccc(C(O)CNC(=O)c2ccccc2)cc1 (stereo unspecified) and report it.
> 100 µM
